- ASSAY SYSTEM: 109Q-HTTEX1 (Homo sapiens, UniProt P42858)
- Construct: the polyQ-expanded N terminus of HTT translated from the exon 1 of human huntingtin gene; expressed in transfected cells; host or cells: Neuro-2a (mouse neuroblastoma)
- Sequence (P42858 with tags, fused parts or gaps): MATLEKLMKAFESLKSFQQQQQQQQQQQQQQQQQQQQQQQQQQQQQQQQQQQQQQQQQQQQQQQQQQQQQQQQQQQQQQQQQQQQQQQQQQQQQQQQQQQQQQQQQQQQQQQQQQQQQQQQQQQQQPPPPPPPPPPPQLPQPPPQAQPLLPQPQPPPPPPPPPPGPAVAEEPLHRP
- PROTOCOL: Western blot of polyQ-expanded huntingtin (109Q-HTTEX1) in transfected Neuro-2a cells
- Type: cell-based
- CONDITION PARAMETERS: 5 μM, 24 h
ATTRIBUTE MEASURED: reduction of the expression of 109Q-HTTEX1

1) CNc1ccc(/C=C/c2ccc(OCCOCCOCCNc3cccc4c3C(=O)N(C3CCC(=O)NC3=O)C4=O)nc2)cc1 (stereo not shown) [II-1d]; approximately 50%
2) CN(C)c1ccc(-c2nc3ccc(OCCOCCOCCOCCNc4cccc5c4C(=O)N(C4CCC(=O)NC4=O)C5=O)cc3s2)cc1 (stereo not shown); approximately 50%
3) CNc1ccc(/C=C/c2ccc(OCCOCCOCCNc3cccc4c3C(=O)N(C3CCC(=O)NC3=O)C4=O)nc2)cc1 (stereo not shown) [II-1b]; 20%
4) CN(C)c1ccc(-c2nc3ccc(OCCOCCOCCOCCOCCNc4cccc5c4C(=O)N(C4CCC(=O)NC4=O)C5=O)cc3s2)cc1 (stereo not shown); approximately 50%
